- System Under Test: PAF receptor (Oryctolagus cuniculus)
- Construct: platelet membranes where prepared by centrifugation and washing; tissue Pel-Freez (Rogers, AR) (whole rabbit blood); host or cells: rabbit platelet membranes
- Sequence (G1TEI7 1-342): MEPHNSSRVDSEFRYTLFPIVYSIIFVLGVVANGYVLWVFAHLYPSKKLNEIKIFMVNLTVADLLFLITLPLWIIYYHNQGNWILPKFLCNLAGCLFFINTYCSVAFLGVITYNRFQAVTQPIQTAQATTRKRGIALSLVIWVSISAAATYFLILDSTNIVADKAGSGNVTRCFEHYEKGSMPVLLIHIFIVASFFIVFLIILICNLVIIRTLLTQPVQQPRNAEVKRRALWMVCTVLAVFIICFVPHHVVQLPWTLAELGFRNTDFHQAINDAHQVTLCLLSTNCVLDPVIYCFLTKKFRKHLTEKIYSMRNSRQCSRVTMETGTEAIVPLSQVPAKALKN
- Experiment Description: PAF receptor binding assay ([3H]C18-PAF, rabbit platelet membranes)
- Reported Conditions: read-out: PAF Receptor Binding Activity K1
Measured Property: log10 Ki (log10 of the value in µM)
In our notation, the value equals log10 of Ki in µM.

Please review the entries below; each comes with its answer.
| Compound | log10 Ki |
| --- | --- |
| CC(C)(C)OC(=O)n1cc(C(=O)c2ccn3c2C[S+]([O-])C3c2cccnc2)c2ccccc21 (stereo not drawn) | 0.34 |
| CN(C)C(=O)n1cc(C(=O)c2ccn3c2C[S+]([O-])C3c2cccnc2)c2ccc(-c3ccccc3)cc21 (stereo not drawn) | -1.02 |
| CN(C)C(=O)n1cc(C(=O)c2ccn3c2CSC3c2cccnc2)c2ccc(-c3cccs3)cc21 (stereo not drawn) | -3.02 |
| COc1ccc(-c2ccc3c(C(=O)c4ccn5c4CSC5c4cccnc4)c[nH]c3c2)cc1 (stereo not drawn) | 0.00 |
| COc1ccc(-c2ccc3c(C(=O)c4ccn5c4CSC5c4ccc[n+]([O-])c4)cn(C(=O)N(C)C)c3c2)cc1 (stereo not drawn) | -2.39 |

Request: Complete the entry with log10 Ki for NCCn1cc(C(=O)c2ccn3c2CSC3c2ccc[n+]([O-])c2)c2ccc(-c3ccc(F)cc3)cc21 (stereo not drawn)
Result: -0.32

Request: Complete the entry with log10 Ki for O=C(c1ccn2c1CSC2c1cccnc1)c1cn(Cc2nnn[nH]2)c2cc(-c3ccc(F)cc3)ccc12 (stereo not drawn)
Result: -1.72

Request: Complete the entry with log10 Ki for O=C(c1ccn2c1CSC2c1cccnc1)c1c[nH]c2c(OCc3ccccc3)cccc12 (stereo not drawn)
Result: -1.05

Request: Complete the entry with log10 Ki for O=C(c1ccn2c1CSC2c1cccnc1)c1c[nH]c2ccc(OCc3ccccc3)cc12 (stereo not drawn)
Result: -0.74

Request: Complete the entry with log10 Ki for CN(C)CCN(C)C(=O)n1cc(C(=O)c2ccn3c2CSC3c2cccnc2)c2ccc(-c3ccc(F)cc3)cc21 (stereo not drawn)
Result: -2.16

Request: Complete the entry with log10 Ki for CNC(=O)n1cc(C(=O)c2ccn3c2CSC3c2ccc[n+]([O-])c2)c2ccc(-c3ccccc3)cc21 (stereo not drawn)
Result: -1.36

---

- System Under Test: PAF receptor (Oryctolagus cuniculus)
- Construct: platelet membranes where prepared by centrifugation and washing; tissue Pel-Freez (Rogers, AR) (whole rabbit blood); host or cells: rabbit platelet membranes
- Experiment Description: PAF receptor binding assay ([3H]C18-PAF, rabbit platelet membranes)
- Reported Conditions: read-out: PAF Receptor Binding Activity K1
Each entry belongs to exactly one class, chosen by where its Ki falls: bottom range = under 20 nM, center range = from 20 nM up to 100 nM, top range = 100 nM and over

Solved cases below.
| Compound | System Under Test | Label Value |
| --- | --- | --- |
| CN(C)C(=O)n1cc(C(=O)c2ccn3c2CSC3c2cccnc2)c2ccc(-c3cnc(N)nc3)cc21 (stereo not drawn) | PAF receptor (Oryctolagus cuniculus) | top range |
| O=C(c1ccn2c1CSC2c1ccc[n+]([O-])c1)c1cn(S(=O)(=O)c2ccccc2)c2cc(-c3ccc(F)cc3)ccc12 (stereo not drawn) | PAF receptor (Oryctolagus cuniculus) | top range |
| Cn1cc(C(=O)c2ccn3c2CSC3c2cccnc2)c2ccc(OCc3ccccc3)cc21 (stereo not drawn) | PAF receptor (Oryctolagus cuniculus) | bottom range |
| O=C(c1ccn2c1CSC2c1cccnc1)c1cn(C(=O)NCCc2c[nH]cn2)c2cc(-c3ccc(F)cc3)ccc12 (stereo not drawn) | PAF receptor (Oryctolagus cuniculus) | bottom range |
| CC(C)N(C(=O)n1cc(C(=O)c2ccn3c2CSC3c2cccnc2)c2ccc(OCc3ccccc3)cc21)C(C)C (stereo not drawn) | PAF receptor (Oryctolagus cuniculus) | center range |

Request: Sort into band: O=C(c1ccn2c1CSC2c1cccnc1)c1cn(C(=O)NCCO)c2cc(-c3ccc(F)cc3)ccc12 (stereo not drawn)
Result: bottom range

Request: Sort into band: O=C(c1ccn2c1CSC2c1cccnc1)c1c[nH]c2cc(-c3ccccc3)ccc12 (stereo not drawn)
Result: center range

Request: Sort into band: CN(C)C(=O)n1cc(C(=O)c2ccn3c2C[S+]([O-])C3c2ccc[n+]([O-])c2)c2ccc(-c3ccc(F)cc3)cc21 (stereo not drawn)
Result: center range
